Numbers sourced from patent US20110223107A1.

Below is a list of entries, each paired with its recorded OD450 value.
- MEASUREMENT TARGET: T1, recombinant Fc-KAAG1 fusion protein (full-length KAAG1) (human, UniProt Q9UBP8 1-84, biotinylated with NHS-biotin (sites not given))
- T1 construct: also called recombinant human KAAG1; not shown: human Fc domain encoded by expression plasmid pYD5; vector-encoded residues between the Fc and the BamHI cloning site of pYD5
- T1 sequence: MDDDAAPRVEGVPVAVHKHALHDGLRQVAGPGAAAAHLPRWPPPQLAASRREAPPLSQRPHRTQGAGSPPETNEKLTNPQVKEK
- ASSAY NOTES: ELISA
No unit in the answer, please; the number alone is enough.

Consider the worked cases shown below.
- A9 (Fab, V domains shown, also called Fab of well A9) VH: QVQVQQPGAELVRPGASVTLSCKASGYIFTDYEVHWVRQRPVHGLEWIGVIDPETGDTAYNQKFKGKATLTADKSSSTAYMELSSLTAEDSAVYYCIGYADYWGQGTTLTVSS VL: DIVMTQSPSSLAMSLGQKVTMSCKSSQSLLNSNNQLNYLAWYQQKPGQSPKLLVYFASTRKSGVPDRFIGSGSGTDFTLTITSVQAEDLADYFCQQHFNTPLTFGAGTKLELK: 1.53
- Fab of well E10 (Omniclonal AL0003Z1 plate) (Fab, V domains shown) VH: EVQLQQSGPELVKPGASVKISCKASGDTFTDYYMNWVKQSHGKSLEWIGDINPNYGGITYNQKFKGKATLTVDTSSSTAYMELRGLTSEDSAVYYCQAYYRNSDYWGQGTTLTVSS VL: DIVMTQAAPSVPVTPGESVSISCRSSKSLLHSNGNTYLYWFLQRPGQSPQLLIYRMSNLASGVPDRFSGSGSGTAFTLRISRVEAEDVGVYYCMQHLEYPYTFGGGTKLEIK: 0.02

Please turn your attention to the following entry.
Query: Return OD450 (reported value) for this binder: Fab of well C2 (Omniclonal AL0003Z1 plate) (Fab, V domains shown) VH: DVQLQESGPDLVKPSQSLSLTCTVTGFSITSGYGWHWIRQFPGNKLEWMGYISFNGDSNYNPSLKSRISITRDTSKNQFFLQLNSVTSEDTATYYCASSYDGLFAYWGQGPLVTVSA VL: DIQMTQSPSSMYASLGERVTLTCKASQDIHNYLNWFQQKPGKSPKTLIHRANRLVAGVPSRFSGSGSGQDYSLTISSLEYEDLGIYYCLQYDAFPLTFGAGTKLELK
Response: 0.32
